# EXPERIMENT NOTES: Oral bioavailability in Balb/C mouse at 10 mg/kg by LC-MS/MS analysis
# Type: ADME, organism-based
# MEASUREMENT CONDITIONS: in vivo
MEASURED QUANTITY: bioavailability (%)
The reply should contain only the number, in %.

What does the record list as bioavailability for `CN1CCN(CC2CCN(c3cncc4[nH]c(-c5cc(F)cc(F)c5)nc34)CC2)CC1` ?
73

###

# EXPERIMENT NOTES: Tmax in Plasmodium falciparum 3D70087/N9 infected NSG mouse at 5 mg/kg, po by LC-MS/MS analysis
# Assay type: ADME, organism-based
# MEASUREMENT CONDITIONS: in vivo
MEASURED QUANTITY: Tmax (h)
The reply should contain only the number, in h.

What does the record list as Tmax for `CN1CCN(CC2CCN(c3nccc4[nH]c(-c5cc(F)cc(F)c5)nc34)CC2)CC1` ?
2.5
